Experiment notes: SK-BR-3 cell growth inhibitors, pilot screen, 24 h, human (AID 572);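 note: compound exposure lasted between 18 and 24 h rather than exactly 24 h; 100% = carrier-treated control wells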
Condition label: SK-BR-3 viability, CellTiter-Glo luminescence, at 10 µM, stronger effect = lower value
Endpoint name: viability (%)

- Molecule: "COc1cccc(C(=O)Nc2ccc(N(C)C)cc2)c1OC"
  Val: 97
- Molecule: "Cc1cc(NC(=O)COC(=O)C2COc3ccccc3O2)no1 (configuration not stated)"
  Val: 110
- Molecule: "COc1ccc(OC)c(NC(=O)CSc2nc3ccccc3c(=O)n2CCNC(C)=O)c1"
  Val: 118
- Molecule: "CCCc1[nH]nc2c1C(c1cccc(OC(=O)c3ccco3)c1)C(C#N)=C(N)O2 (configuration not stated)"
  Val: 93.5
- Molecule: "O=C(Nc1cccc(C(F)(F)F)c1)c1cccnc1N1CCCC1"
  Val: 99
- Molecule: "O=C(CN(C(=O)CCNC(=O)c1ccco1)c1ccccc1)NC1CCCC1"
  Val: 93
- Molecule: "Cc1cc2c(s1)c1cnn(CC(=O)NCCc3ccccc3)c(=O)c1n2C"
  Val: 120
- Molecule: "COC(=O)c1ccc(NC(=O)CN2C(=O)CSC2=O)cc1"
  Val: 104
- Molecule: "O=C(NCc1cccnc1)c1ccccc1Br"
  Val: 110
- Molecule: "O=c1cnnc(NCc2ccccc2)[nH]1"
  Val: 88.5
- Molecule: "COC(=O)c1ccc(NC(=O)C2CC(=O)N(c3cc(C)ccc3C)C2)cc1 (configuration not stated)"
  Val: 97
- Molecule: "Cc1ccc(C)c(N2CCN(C(=O)CCCn3c(=S)[nH]c4cc5c(cc4c3=O)OCO5)CC2)c1"
  Val: 73.5
- Molecule: "c1ccc2c(c1)sc1nnnn12"
  Val: 94.5
- Molecule: "CCOC(=O)CSC1=C(C#N)C(=O)NC(c2ccc(OC)c(OC)c2)S1 (configuration not stated)"
  Val: 104
- Molecule: "CC1(C)OC(=O)C(=CNC(CCC(N)=O)C(=O)O)C(=O)O1 (configuration not stated)"
  Val: 100
- Molecule: "COc1cccc(NC(=O)N2CCN(c3cccc(C)c3C)CC2)c1"
  Val: 102
- Molecule: "OCc1nc2ccccc2n1CC(O)Cn1ccc2ccccc21 (configuration not stated)"
  Val: 97.5
- Molecule: "Cc1nc(SCc2ccc(Br)cc2)[nH]c(=O)c1C"
  Val: 83.5
- Molecule: "Cc1nc2ccccn2c1/C(O)=C1\\C(=O)C(=O)N(CCN2CCOCC2)C1c1cccs1 (configuration not stated)"
  Val: 94.5
- Molecule: "Cc1cc(-c2nc3ncccc3o2)ccc1N"
  Val: 99
- Molecule: "O=C(OCC(=O)N1CCC(Cc2ccccc2)CC1)c1ccc[nH]c1=O"
  Val: 80.5
- Molecule: "Cc1cccc(C2c3c(n(C)c(=O)n(C)c3=O)N=C3c4ccccc4C(=O)C32)c1 (configuration not stated)"
  Val: 101
- Molecule: "COCCn1nnnc1CN(CCCN1CCOCC1)Cc1cc2c(C)ccc(C)c2[nH]c1=O"
  Val: 85
- Molecule: "CCC(C(=O)NC1CCCC1)N(Cc1ccco1)C(=O)Cn1nnc(-c2ccc(C)cc2)n1 (configuration not stated)"
  Val: 97.5
- Molecule: "O=C1COc2ccc(C(=O)NCc3ccco3)cc2N1"
  Val: 95.5
- Molecule: "O=C(Nc1ccc(Br)cc1F)c1sccc1-n1cccc1"
  Val: 87.5
- Molecule: "COc1ccc(CNC(=O)CN(C(=O)c2ccc(CN3CCOCC3)o2)C2CCCC2)cc1"
  Val: 124
- Molecule: "COc1ccc(N2CCN(c3ccc(N)cc3C#N)CC2)cc1"
  Val: 103
- Molecule: "CC(=O)c1ccc(NC(=O)c2noc3c2CCCCC3)cc1"
  Val: 126
- Molecule: "Cc1cc2c(=O)n(Cc3ccco3)c(SCC(=O)NCc3ccco3)nc2s1"
  Val: 100
- Molecule: "COc1ccc(C(=O)Nc2ccc(C)cn2)c(OC)c1"
  Val: 73.5
- Molecule: "CCSc1nnc(NC(=O)c2nn(C(C)C)c(=O)c3ccccc23)s1"
  Val: 99
- Molecule: "CC(C)OC(=O)C(CC(=O)O)NCc1ccccc1 (configuration not stated)"
  Val: 98
- Molecule: "Oc1c(Cl)cc(Cl)cc1CNc1ccc(Br)cn1"
  Val: 100
- Molecule: "CC1(C)Cc2c(sc3ncnc(N)c23)CO1"
  Val: 116
- Molecule: "CC(C)CC(=O)Nc1ccccc1-c1nnn(CC(=O)N2CCOCC2)n1"
  Val: 102
- Molecule: "CCC(C(=O)O)n1c(C(F)(F)F)nc2ccccc21 (configuration not stated)"
  Val: 105
- Molecule: "Cc1cc(NC(=O)Cn2cnc3c2c(=O)n(C)c(=O)n3C)n(-c2ccccc2)n1"
  Val: 116
- Molecule: "CCOC(=O)CSc1nc(C)c(C(=O)OCC)s1"
  Val: 89
- Molecule: "O=C(Nc1nnc(COc2ccc(F)cc2)s1)c1cccs1"
  Val: 107
- Molecule: "CC1=Nn2c(nnc2-c2ccccn2)SC1"
  Val: 94
- Molecule: "O=C(O)CCc1ccc(-c2ccc(F)cc2)n1CC(=O)O"
  Val: 94.5
- Molecule: "O=C1CC(C2CCCO2)C(=O)N1Cc1ccccc1 (configuration not stated)"
  Val: 98
- Molecule: "CCOC(=O)Nc1c(C(=O)OC)[nH]c2cccc(OC)c12"
  Val: 76
- Molecule: "COc1ccccc1CC1(C)NC(=O)N(CC(=O)Nc2cc(C)on2)C1=O (configuration not stated)"
  Val: 106
- Molecule: "CCOc1cc(C(=O)N2CCN=C2SC)cc(OCC)c1OCC"
  Val: 91.5
- Molecule: "CC(C)C1C2=C(CC(C)(C)CC2=O)ON1c1ccccc1 (configuration not stated)"
  Val: 90
